System: ND3 neuronal cell line
assay: Measurement of nerve growth stimulation effect (neurite bearing assay, neurite length assay, number of cells)
Assay type: cell-based
condition-description: 5 μM compound; ND3 cells, 6 h; relative cell number, DMSO well = 1
test-readout: Number of cells
One number for each entry.

Examples with their reported Number of cells follow.
{"columns": ["compound", "target-desc", "Number of cells"],
 "data": [
  ["COCCCCCCCCCCCCCCCC1=C(C)C(N)CCC1(C)C (stereo not drawn) [Compound 66]", "ND3 neuronal cell line", 0.80],
  ["COCCCCCCCCCCCCCCCC1=C(C)C(=NO)CCC1(C)C [Compound 67]", "ND3 neuronal cell line", 0.80],
  ["COCCCCCCCCCCCCCCCC1=C(C)/C(=N/OC)CCC1(C)C [Compound 68]", "ND3 neuronal cell line", 0.73],
  ["CC1=C(CCCCCCCCCCCCCCC(N)=O)C(C)(C)CC1=O [Compound 74]", "ND3 neuronal cell line", 0.71],
  ["COCCCCCCCCCCCCCCC1=C(C)C(=O)CC1(C)C [Compound 72]", "ND3 neuronal cell line", 0.78]
]}

# input for lookup
Prompt: For the compound CC1=C(CCCCCCCCCCCCCCC#N)C(C)(C)CC1=O [Compound 75] , what Number of cells is on record?
Completion: 0.94

---

Tested on: ND3 neuronal cell line
assay: Measurement of nerve growth stimulation effect (neurite bearing assay, neurite length assay, number of cells)
Format: cell-based
condition-description: 3 μM; 6 hours; relative cell number, DMSO well = 1
Task for the reader: assign each of the following compounds its reported viability at 3 µM.
One number for each entry, in %.

Here is how some compounds turned out for viability at 3 µM.
{"columns": ["compound", "recorded-value"],
 "data": [
  ["COCCCCCCCCCCCCCCCC1=C(C)C(=O)CC1 [Compound 45]", 90],
  ["COCCCCCCCCCCCCCCCC1=CC(=O)CCC1 [Compound 37]", 102],
  ["CC1=C(CCCCCCCCCCCCCCCOC(=O)N(C)C)C(C)(C)CCC1=O [Compound 36]", 107],
  ["CNC(=O)OCCCCCCCCCCCCCCCC1=C(C)C(=O)CCC1(C)C [Compound 55]", 102],
  ["CC1=C(CCCCCCCCCCCCCCC(N)=O)C(C)(C)CCC1=O [Compound 32]", 93]
]}

// moving on: another record for viability at 3 µM
Prompt: Value lookup for viability at 3 µM; key = COCCCCCCCCCCCCC1=C(C)C(=O)CCC1(C)C [Compound 11]
Completion: 96

---

System: ND3 neuronal cell line
assay: Measurement of nerve growth stimulation effect (neurite bearing assay, neurite length assay, number of cells)
Format: cell-based
condition-description: 3 μM; 6 hours; relative cell number, DMSO well = 1
test-readout: viability at 3 µM (%)
Give bare numbers, in %.

{"columns": ["compound", "u", "recorded-value"],
 "data": [
  ["CCCOCCCCCCCCCCCCCC1=C(C)C(=O)CCC1(C)C [Compound 19]", "%", 105]
]}

For every record below, what is its viability at 3 µM?
1. CC1=C(CCCCCCCCCCCCCCCCO)C(C)(C)CCC1=O [Compound 5, reference compound]
2. CC1=C(CCCCCCCCCCCCCCO)C(C)(C)CCC1=O [Compound 3, reference compound]
3. CC1=C(CCCCCCCCCCCCCCCO)C(C)(C)CCC1=O [Compound 4, reference compound]
4. COCCCCCCCCCCCCCCCC1=CC(=O)CCC12CC2 [Compound 43]
5. CCOCCCCCCCCCCCCCCC1=C(C)C(=O)CCC1(C)C [Compound 22]
6. COCCCCCCCCCCCCCCCCC1=C(C)C(=O)CCC1(C)C [Compound 29]
7. CC1=C(CCCCCCCCCCCCCCCCOC(C)C)C(C)(C)CCC1=O [Compound 31]
8. COCCCCCCCCCCCCCCCC1=CC(=O)CCC1(C)C [Compound 39]

Completion:
1. 109
2. 105
3. 92
4. 97
5. 103
6. 98
7. 93
8. 100

Please state viability at 3 µM for every compound in the list that follows.
1. CCNC(=O)OCCCCCCCCCCCCCCCC1=C(C)C(=O)CCC1(C)C [Compound 56]
2. CC1=C(CCCCCCCCCCCCOC(C)C)C(C)(C)CCC1=O [Compound 13]
3. COCCCCCCCCCCCCCCC1=C(C)C(=O)CCC1(C)C [Compound 21]

Completion:
1. 106
2. 87
3. 111
